Target: T1, 4H485-AA
T1 chain: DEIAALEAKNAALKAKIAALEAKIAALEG
Assay: two-hybrid library CCmax;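 further: natural log of median RNA to DNA barcode read ratio; higher means stronger binding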
Conditions: mean of both orientations
READOUT KIND: interaction score

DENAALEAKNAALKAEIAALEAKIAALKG [4H1478-AA]    -0.796
DKNAALEAEIAALKAENAALKAKIAALEG [4H3165-AA]    -1.05

I. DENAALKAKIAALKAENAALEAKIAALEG [4H1877-AA]
II. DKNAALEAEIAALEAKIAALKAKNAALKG [4H3120-AA]
input: // task: argmin of interaction score over [ I , II ] Lab log: write the label of the selected item as the result.
output: II
(II: -0.737, I: 0.957)
